system: KIT (human), P10721 [V559D]; assay: KINOMEscan competition binding; conditions: compound 10.0 µM
Sequence (P10721 whole entry V559D, looked up): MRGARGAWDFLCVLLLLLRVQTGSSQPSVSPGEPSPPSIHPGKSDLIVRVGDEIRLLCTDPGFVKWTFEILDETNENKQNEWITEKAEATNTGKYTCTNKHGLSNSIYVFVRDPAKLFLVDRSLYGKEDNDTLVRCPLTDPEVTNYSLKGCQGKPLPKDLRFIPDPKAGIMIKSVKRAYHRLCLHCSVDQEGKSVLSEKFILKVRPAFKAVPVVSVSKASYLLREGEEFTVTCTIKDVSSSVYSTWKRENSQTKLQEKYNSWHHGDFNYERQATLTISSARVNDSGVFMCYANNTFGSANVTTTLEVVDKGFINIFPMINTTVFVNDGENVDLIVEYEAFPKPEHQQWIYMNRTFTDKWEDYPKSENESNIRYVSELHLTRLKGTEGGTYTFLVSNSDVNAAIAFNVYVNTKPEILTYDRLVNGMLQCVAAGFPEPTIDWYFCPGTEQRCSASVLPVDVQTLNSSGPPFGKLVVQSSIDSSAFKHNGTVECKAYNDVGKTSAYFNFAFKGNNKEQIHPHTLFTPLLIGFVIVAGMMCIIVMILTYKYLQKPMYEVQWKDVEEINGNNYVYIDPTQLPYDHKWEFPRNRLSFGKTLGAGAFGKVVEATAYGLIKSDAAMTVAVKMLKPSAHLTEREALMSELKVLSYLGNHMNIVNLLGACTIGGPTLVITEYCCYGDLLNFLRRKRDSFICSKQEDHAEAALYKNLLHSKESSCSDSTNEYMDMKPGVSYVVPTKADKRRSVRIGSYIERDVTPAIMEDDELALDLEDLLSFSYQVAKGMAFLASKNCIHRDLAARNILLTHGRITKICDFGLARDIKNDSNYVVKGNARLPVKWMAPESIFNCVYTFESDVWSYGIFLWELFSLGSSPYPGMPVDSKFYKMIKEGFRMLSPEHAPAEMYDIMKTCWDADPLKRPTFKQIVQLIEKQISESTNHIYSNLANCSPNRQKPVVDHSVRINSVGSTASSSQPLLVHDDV
reported endpoint: kinase still bound, per cent of control (%)
Write the number in % without appending the unit.

Q: What measured kinase still bound, per cent of control goes with CCN1C(=O)CCN(C2CCCC2)c2nc(Nc3ccc(N4CCC(O)CC4)cn3)ncc21 ?
A: 31

###

target: GSK3A (human) (UniProt P49840); assay: KINOMEscan competition binding; conditions: compound 10.0 µM
Sequence (P49840 whole entry, looked up): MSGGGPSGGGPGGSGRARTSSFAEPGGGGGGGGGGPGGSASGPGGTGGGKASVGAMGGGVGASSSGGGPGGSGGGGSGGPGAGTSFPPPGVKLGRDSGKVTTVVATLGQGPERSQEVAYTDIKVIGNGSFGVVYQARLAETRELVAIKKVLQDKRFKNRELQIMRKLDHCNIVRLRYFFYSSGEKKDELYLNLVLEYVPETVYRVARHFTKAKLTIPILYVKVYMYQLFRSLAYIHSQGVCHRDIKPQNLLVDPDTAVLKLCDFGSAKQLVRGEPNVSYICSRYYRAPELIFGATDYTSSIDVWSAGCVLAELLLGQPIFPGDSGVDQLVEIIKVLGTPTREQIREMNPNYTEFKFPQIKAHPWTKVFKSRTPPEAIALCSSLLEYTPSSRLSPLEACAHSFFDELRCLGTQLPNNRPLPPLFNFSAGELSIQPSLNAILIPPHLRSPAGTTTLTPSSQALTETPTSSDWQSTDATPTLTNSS
Label Condition met when kinase still bound, per cent of control < 20%; otherwise Condition not met.

These recorded examples may help you get a feel for the data.
compound | assigned class
N=C1NC(=O)/C(=C/c2ccc(-c3ccc(Cl)cc3)o2)S1 | Condition met
CN1C(=N)NC(=O)/C1=C/c1ccc(-c2cccc3ccccc23)o1 | Condition met
CN1CCN(c2ccc(C(=O)Nc3ncc4c(n3)N(C)c3ccccc3C(=O)N4C)cc2)CC1 | Condition not met
O=C1NC(=O)/C(=C/c2c[nH]c(=O)c(-c3ccc(N4CCNCC4)nc3)c2)S1 | Condition not met

For the next question, use this molecule.
Q: Strictly below 20% in kinase still bound, per cent of control? N=C1NC(=O)/C(=C/c2ccc(-c3ccc(S(N)(=O)=O)cc3)o2)S1
A: Condition met

###

target: EIF2AK2 (human); assay: KINOMEscan competition binding; conditions: compound 10.0 µM
Each entry belongs to exactly one class, chosen by where its kinase still bound, per cent of control falls: small value (below 30%), mid value (30% to below 90%), large value (90% or more)

These recorded examples may help you get a feel for the data.
compound | assigned class
NS(=O)(=O)c1ccc(-c2ccc(/C=C3\SC(=S)N(CC(=O)O)C3=O)o2)cc1 | mid value
COc1cc(N2CCN(C)CC2)ccc1Nc1ncc2c(n1)N(C)c1sccc1C(=O)N2C | mid value

Q: Kindly state the category for this compound: CSC1=NC(=O)/C(=C/c2ccc(-c3ccc(S(N)(=O)=O)cc3)o2)S1
A: small value

Q: Proceed to COc1cc(N2CCC(O)CC2)ccc1Nc1ncc2c(n1)N1CCc3cccc(c31)C(=O)N2C
A: mid value

Q: Proceed to CN1CCN(c2ccc(C(=O)Nc3ncc4c(n3)N(C)c3ccccc3C(=O)N4C)cc2)CC1
A: large value

Q: Proceed to O=C1NC(=S)S/C1=C\c1ccc(-c2cncc3ccccc23)o1
A: small value

Q: Proceed to N=C1NC(=O)/C(=C/c2ccc(-c3cncc4ccccc34)o2)S1
A: small value

Q: Proceed to O=C1NC(=O)/C(=C/c2c[nH]c(=O)c(-c3ccc(N4CCNCC4)nc3)c2)S1
A: mid value

Q: Proceed to COc1cc(N2CCN(C)CC2)ccc1Nc1ncc2c(n1)N(C)c1ccccc1N(C)C2=O
A: large value

Q: Proceed to CN1C(=O)c2ccccc2N(C)c2nc(Nc3ccc(N4CCC(O)CC4)cc3)ncc21
A: large value

Q: Proceed to COc1cc(N2CCN(C)CC2)ccc1Nc1ncc2c(n1)Nc1ccccc1NC2=O
A: mid value

###

molecular target: MAPKAPK2 (human); experiment: KINOMEscan competition binding; settings: compound 10.0 µM
reported endpoint: kinase still bound, per cent of control (%)
Write the number in % without appending the unit.

compound | reported endpoint | recorded value
O=C1NC(=O)/C(=C/c2c[nH]c(=O)c(-c3ccc(N4CCNCC4)nc3)c2)S1 | kinase still bound, per cent of control | 100
N=C1NC(=O)/C(=C/c2ccc(-c3ccc(C(N)=O)cc3O)o2)S1 | kinase still bound, per cent of control | 25
CN1C(=O)c2ccccc2N(C)c2nc(Nc3ccc(N4CCC(O)CC4)cc3)ncc21 | kinase still bound, per cent of control | 100

Q: What measured kinase still bound, per cent of control goes with CN1CCN(c2ccc(C(=O)Nc3ncc4c(n3)N(C)c3ccccc3C(=O)N4C)cc2)CC1 ?
A: 100

Q: Proceed to CN1C(=O)c2ccccc2N(C)c2nc(NS(=O)(=O)c3ccc(N)cc3)ncc21
A: 96

###

target: MAP3K4 (human) (UniProt Q9Y6R4); assay: KINOMEscan competition binding; conditions: compound 10.0 µM
Sequence (Q9Y6R4 whole entry, looked up): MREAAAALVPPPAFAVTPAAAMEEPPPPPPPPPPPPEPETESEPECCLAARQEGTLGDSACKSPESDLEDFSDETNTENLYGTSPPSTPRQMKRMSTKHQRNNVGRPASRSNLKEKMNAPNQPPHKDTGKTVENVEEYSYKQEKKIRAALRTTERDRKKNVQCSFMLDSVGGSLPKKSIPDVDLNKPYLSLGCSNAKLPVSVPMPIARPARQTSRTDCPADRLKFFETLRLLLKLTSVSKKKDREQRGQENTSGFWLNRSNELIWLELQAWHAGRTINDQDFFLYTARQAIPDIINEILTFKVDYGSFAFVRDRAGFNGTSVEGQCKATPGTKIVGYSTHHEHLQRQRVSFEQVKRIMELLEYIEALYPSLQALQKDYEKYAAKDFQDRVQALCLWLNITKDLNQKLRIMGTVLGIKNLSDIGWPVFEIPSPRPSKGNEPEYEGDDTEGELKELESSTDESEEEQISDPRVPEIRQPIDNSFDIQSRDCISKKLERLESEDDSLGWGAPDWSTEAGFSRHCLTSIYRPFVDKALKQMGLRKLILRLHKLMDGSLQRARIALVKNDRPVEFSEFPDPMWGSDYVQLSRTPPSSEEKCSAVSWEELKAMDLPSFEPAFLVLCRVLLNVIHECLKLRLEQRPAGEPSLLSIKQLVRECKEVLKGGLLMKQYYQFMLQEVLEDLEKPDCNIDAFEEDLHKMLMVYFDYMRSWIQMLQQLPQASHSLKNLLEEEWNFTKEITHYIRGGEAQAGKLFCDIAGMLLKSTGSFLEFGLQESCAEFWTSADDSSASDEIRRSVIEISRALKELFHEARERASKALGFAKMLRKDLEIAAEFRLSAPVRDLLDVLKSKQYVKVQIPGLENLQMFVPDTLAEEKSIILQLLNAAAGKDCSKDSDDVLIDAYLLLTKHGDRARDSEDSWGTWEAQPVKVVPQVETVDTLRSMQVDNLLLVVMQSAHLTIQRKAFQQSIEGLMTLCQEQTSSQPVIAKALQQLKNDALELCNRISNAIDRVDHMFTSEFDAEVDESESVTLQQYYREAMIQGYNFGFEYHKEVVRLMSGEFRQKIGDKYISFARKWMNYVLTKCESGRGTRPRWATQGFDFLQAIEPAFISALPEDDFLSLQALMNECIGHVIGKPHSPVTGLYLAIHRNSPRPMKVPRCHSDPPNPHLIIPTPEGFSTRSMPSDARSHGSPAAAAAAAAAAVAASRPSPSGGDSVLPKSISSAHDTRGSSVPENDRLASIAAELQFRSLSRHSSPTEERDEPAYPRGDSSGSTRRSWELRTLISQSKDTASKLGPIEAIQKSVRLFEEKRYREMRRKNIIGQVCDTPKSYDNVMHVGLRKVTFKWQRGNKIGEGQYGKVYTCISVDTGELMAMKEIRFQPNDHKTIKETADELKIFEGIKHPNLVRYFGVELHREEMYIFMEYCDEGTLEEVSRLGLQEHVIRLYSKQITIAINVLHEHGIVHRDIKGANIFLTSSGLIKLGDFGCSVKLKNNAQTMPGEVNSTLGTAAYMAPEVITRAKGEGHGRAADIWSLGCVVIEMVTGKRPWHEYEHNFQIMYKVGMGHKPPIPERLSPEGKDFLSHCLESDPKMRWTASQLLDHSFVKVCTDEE
Label Fulfilled when kinase still bound, per cent of control < 80%; otherwise Not fulfilled.

These recorded examples may help you get a feel for the data.
compound | experimental target | assigned class
CN1C(=O)c2ccccc2N(C)c2nc(Nc3ccc(N4CCC(O)CC4)cc3)ncc21 | MAP3K4 (human) (UniProt Q9Y6R4) | Not fulfilled
CN1CCN(c2ccc(C(=O)Nc3ncc4c(n3)N(C)c3ccccc3C(=O)N4C)cc2)CC1 | MAP3K4 (human) (UniProt Q9Y6R4) | Not fulfilled
COc1cc(N2CCC(O)CC2)ccc1Nc1ncc2c(n1)N1CCc3cccc(c31)C(=O)N2C | MAP3K4 (human) (UniProt Q9Y6R4) | Not fulfilled
O=C1NC(=O)/C(=C/c2c[nH]c(=O)c(-c3ccc(N4CCNCC4)nc3)c2)S1 | MAP3K4 (human) (UniProt Q9Y6R4) | Fulfilled
CN1C(=O)c2ccccc2N(C)c2nc(NS(=O)(=O)c3ccc(N)cc3)ncc21 | MAP3K4 (human) (UniProt Q9Y6R4) | Not fulfilled

Q: Strictly below 80% in kinase still bound, per cent of control? COc1cc(N2CCN(C)CC2)ccc1Nc1ncc2c(n1)Nc1ccccc1NC2=O
A: Not fulfilled

Q: Proceed to COc1cc(N2CCN(C)CC2)ccc1Nc1ncc2c(n1)N(C)c1ccccc1N(C)C2=O
A: Not fulfilled

Q: Proceed to COc1cc(N2CCN(C)CC2)ccc1Nc1ncc2c(n1)N(C)c1sccc1C(=O)N2C
A: Fulfilled

###

Measured kinase still bound, per cent of control by item
molecular target: ERBB2 (human) (UniProt P04626); test: KINOMEscan competition binding; conditions: compound 10.0 µM
Sequence (P04626 whole entry, looked up): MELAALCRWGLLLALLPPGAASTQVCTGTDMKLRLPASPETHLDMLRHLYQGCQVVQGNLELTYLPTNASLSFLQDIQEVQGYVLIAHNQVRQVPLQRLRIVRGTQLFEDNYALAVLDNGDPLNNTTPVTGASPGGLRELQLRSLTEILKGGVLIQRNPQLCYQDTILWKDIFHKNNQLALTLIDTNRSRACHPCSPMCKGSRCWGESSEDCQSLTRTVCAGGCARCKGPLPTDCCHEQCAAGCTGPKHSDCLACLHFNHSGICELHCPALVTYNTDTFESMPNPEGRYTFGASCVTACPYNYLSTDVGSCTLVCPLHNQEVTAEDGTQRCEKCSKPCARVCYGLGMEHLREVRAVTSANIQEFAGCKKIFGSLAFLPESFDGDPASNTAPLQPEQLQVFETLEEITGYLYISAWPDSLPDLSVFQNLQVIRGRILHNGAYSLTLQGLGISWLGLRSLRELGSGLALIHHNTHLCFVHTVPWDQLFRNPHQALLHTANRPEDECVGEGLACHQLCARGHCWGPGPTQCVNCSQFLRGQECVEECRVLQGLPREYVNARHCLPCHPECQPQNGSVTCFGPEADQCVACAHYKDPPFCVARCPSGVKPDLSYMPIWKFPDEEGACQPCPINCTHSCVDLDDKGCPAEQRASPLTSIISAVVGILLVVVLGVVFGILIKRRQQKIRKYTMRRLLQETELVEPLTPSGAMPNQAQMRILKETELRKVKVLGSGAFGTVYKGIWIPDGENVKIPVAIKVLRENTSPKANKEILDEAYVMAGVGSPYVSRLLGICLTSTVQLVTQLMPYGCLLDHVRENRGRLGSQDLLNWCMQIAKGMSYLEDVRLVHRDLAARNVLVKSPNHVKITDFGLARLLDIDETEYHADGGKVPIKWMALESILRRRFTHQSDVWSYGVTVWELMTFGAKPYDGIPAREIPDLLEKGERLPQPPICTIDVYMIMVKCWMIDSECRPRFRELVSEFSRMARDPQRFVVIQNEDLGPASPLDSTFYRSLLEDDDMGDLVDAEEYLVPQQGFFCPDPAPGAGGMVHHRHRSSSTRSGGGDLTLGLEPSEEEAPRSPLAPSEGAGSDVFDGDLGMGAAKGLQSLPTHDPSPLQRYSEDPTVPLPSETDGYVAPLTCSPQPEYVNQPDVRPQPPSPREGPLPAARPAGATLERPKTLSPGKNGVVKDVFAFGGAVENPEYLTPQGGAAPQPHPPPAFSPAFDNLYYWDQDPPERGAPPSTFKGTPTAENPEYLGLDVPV

compound | kinase still bound, per cent of control
COc1cc(N2CCC(O)CC2)ccc1Nc1ncc2c(n1)N1CCc3cccc(c31)C(=O)N2C | 92%

Q: What measured kinase still bound, per cent of control goes with CN1C(=O)c2ccccc2N(C)c2nc(NS(=O)(=O)c3ccc(N)cc3)ncc21 ?
A: 100%

Q: Proceed to CN1CCN(c2ccc(C(=O)Nc3ncc4c(n3)N(C)c3ccccc3C(=O)N4C)cc2)CC1
A: 88%

Q: Proceed to O=C1NC(=O)/C(=C/c2c[nH]c(=O)c(-c3ccc(N4CCNCC4)nc3)c2)S1
A: 57%

Q: Proceed to COc1cc(N2CCN(C)CC2)ccc1Nc1ncc2c(n1)N(C)c1ccccc1N(C)C2=O
A: 6.6%

Q: Proceed to COc1cc(N2CCN(C)CC2)ccc1Nc1ncc2c(n1)N(C)c1sccc1C(=O)N2C
A: 89%

Q: Proceed to COc1cc(N2CCN(C)CC2)ccc1Nc1ncc2c(n1)Nc1ccccc1NC2=O
A: 5%

Q: Proceed to CN1C(=O)c2ccccc2N(C)c2nc(Nc3ccc(N4CCC(O)CC4)cc3)ncc21
A: 99%

###

test system: EGFR (human), P00533 [747-751 del / S ins]; assay: KINOMEscan competition binding; conditions: compound 10.0 µM
reported endpoint: kinase still bound, per cent of control (%)
Write the number in % without appending the unit.

Some entries whose results are on file:
compound | quantity unit | kinase still bound, per cent of control
COc1cc(N2CCN(C)CC2)ccc1Nc1ncc2c(n1)Nc1ccccc1NC2=O | % | 62
COc1cc(N2CCC(O)CC2)ccc1Nc1ncc2c(n1)N1CCc3cccc(c31)C(=O)N2C | % | 64
COc1cc(C(=O)NC2CCN(C)CC2)ccc1Nc1ncc2c(n1)N(CCc1ccccc1)CCC(=O)N2C | % | 28
COc1cc(N2CCC(N3CCN(C)CC3)CC2)ccc1Nc1ncc2c(n1)N(C1CCCC1)C(C)CC(=O)N2 (stereo not given) | % | 32

Q: What measured kinase still bound, per cent of control goes with COc1cc(N2CCN(C)CC2)ccc1Nc1ncc2c(n1)N(c1ccccc1)CCC(=O)N2 ?
A: 11

###

molecular target: CDK17 (human) (UniProt Q00537); assay: KINOMEscan competition binding; settings: compound 10.0 µM
Sequence (Q00537 whole entry, looked up): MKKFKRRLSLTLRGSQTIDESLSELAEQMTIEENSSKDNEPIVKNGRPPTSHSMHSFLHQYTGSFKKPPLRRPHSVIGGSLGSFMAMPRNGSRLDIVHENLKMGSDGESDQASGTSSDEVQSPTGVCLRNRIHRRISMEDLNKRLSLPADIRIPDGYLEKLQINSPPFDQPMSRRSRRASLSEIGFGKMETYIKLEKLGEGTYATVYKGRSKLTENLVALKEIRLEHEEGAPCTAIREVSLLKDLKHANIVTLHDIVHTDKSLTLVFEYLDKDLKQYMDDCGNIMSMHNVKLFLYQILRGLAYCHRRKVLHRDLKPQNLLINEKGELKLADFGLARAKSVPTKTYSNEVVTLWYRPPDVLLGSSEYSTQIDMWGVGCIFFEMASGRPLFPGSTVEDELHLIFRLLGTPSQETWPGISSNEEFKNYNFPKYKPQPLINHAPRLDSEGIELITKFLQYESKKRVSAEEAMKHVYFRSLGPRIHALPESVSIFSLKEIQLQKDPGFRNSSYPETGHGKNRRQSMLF
Label Y when kinase still bound, per cent of control < 90%; otherwise N.

These recorded examples may help you get a feel for the data.
compound | assigned class
N=C1NC(=O)/C(=C/c2ccc(-c3ccc(C(N)=O)cc3O)o2)S1 | Y
COc1cc(N2CCC(O)CC2)ccc1Nc1ncc2c(n1)N1CCc3cccc(c31)C(=O)N2C | N
COc1cc(N2CCN(C)CC2)ccc1Nc1ncc2c(n1)N(C)c1ccccc1N(C)C2=O | N
O=C1NC(=O)/C(=C/c2c[nH]c(=O)c(-c3ccc(N4CCNCC4)nc3)c2)S1 | Y
CN1CCN(c2ccc(C(=O)Nc3ncc4c(n3)N(C)c3ccccc3C(=O)N4C)cc2)CC1 | N

Q: Strictly below 90% in kinase still bound, per cent of control? CN1C(=O)c2ccccc2N(C)c2nc(NS(=O)(=O)c3ccc(N)cc3)ncc21
A: N

Q: Proceed to COc1cc(N2CCN(C)CC2)ccc1Nc1ncc2c(n1)Nc1ccccc1NC2=O
A: N

Q: Proceed to COc1cc(N2CCN(C)CC2)ccc1Nc1ncc2c(n1)N(C)c1sccc1C(=O)N2C
A: Y

All figures here come from the kinase profiling compilation of Christmann-Franck et al. (2016).
